- target_or_system: T1, HIV-1 YU-2 gp120 (wild-type gp120YU-2, monomeric) (HIV-1 (YU-2), UniProt P35961 32-498)
- T1 construct: domain: gp120; only gp120 stood in the assay
- experiment_description: SPR competition, sCD4 inhibition: inhibition of gp120 binding to immobilized sCD4
Starred links: 1 amine or outer side, 2 acyl side, 3 side chain; linkers in the order of their positions; H or OH if unused. Positions of bridges follow the written chain, without caps; N, C: chain ends. Non-standard residues stand in square brackets, D forms with d. No end group written: not given here. X2 = (2S,4S)‑4‑(4-ferrocenyl-1H-1,2,3-triazol-1-yl)pyrrolidine‑2‑carboxylic acid, O=C([C@@H]1C[C@H](n2cc(-[c-]3cccc3)nn2)CN1[*:1])[*:2].[Fe+2].c1cc[cH-]c1; Pro(cis-4-Trz(4-CH2CH2Ph)) = O=C(O)[C@@H]1C[C@H](n2cc(CCc3ccccc3)nn2)CN1; Bta = N[C@@H](Cc1csc2ccccc12)C(=O)O; Gly(cPr) = N[C@H](C(=O)O)C1CC1; Dab = NCC[C@H](N)C(=O)O
Give IC50 for every item shown.

Field request: IC50 | item: DNI[X2][Bta]K-NH2 (lactam 1-6) [AAR029E]
~20 nM

Field request: IC50 | item: ENI[Pro(cis-4-Trz(4-CH2CH2Ph))]W[Dab]-NH2 (lactam 1-6, also called macrocycle AAR030) [AAR030]
> 20000 nM

Field request: IC50 | item: DN[Gly(cPr)][X2]WK-NH2 (lactam 1-6) [AAR042]
~2000 nM
